The measurements presented in this section are drawn from ChEMBL document CHEMBL3124799.

Assay: Drug uptake in spinal cord of nontransgenic mouse at 10 mg/kg, ip after 24 hrs
property.name: concentration at 24 h

// Input: `COc1ccc(CSc2nnc(-c3ccncc3)o2)cc1` . Output its concentration at 24 h only.
113 nM

---

Test: Drug uptake in spinal cord of nontransgenic mouse at 10 mg/kg, ip after 4 hrs
property.name: concentration at 4 h (nM)
The figure you give is taken to be in nM; do not add the unit.

// Input: `COc1ccc(CSc2nnc(-c3ccncc3)o2)cc1` . Output its concentration at 4 h only.
162

---

Test: Drug uptake in serum of mouse expressing SOD1 G93A mutant at 10 mg/kg, ip after 2 hrs
Type: ADME, organism-based
Set-up: dose 10 mg/kg, route intraperitoneal
Conditions: read-out: Drug uptake
property.name: concentration at 2 h (nM)
The figure you give is taken to be in nM; do not add the unit.

// Input: `COc1ccc(CSc2nnc(-c3ccncc3)o2)cc1` . Output its concentration at 2 h only.
153
